Test: ATG_PBREM_CIS: Attagene CIS-FACTORIAL HepG2 Assay for human Phenobarbital-responsive Enhancer Module (PBREM) (AID 2282955)
Conditions: HepG2 PBREM cis-reporter, Attagene multiplexed transcription; actives raise or lower the signal
Description: ATG_CIS is a cell-based, multiplexed-readout assay that uses HepG2, a human liver cell line, with measurements taken at 24 hours after chemical dosing in a 24-well plate.ATG_PBREM_CIS is one of 52 assay component(s) measured or calculated from the ATG_CIS assay. […] This assay endpoint, ATG_PBREM_CIS, was analyzed with bidirectional fitting relative to DMSO as the negative control and baseline of activity. […]
Active and inactive are the calls of the source. How the source made its calls: active means hit-call score of the fitted dose curve at least 0.9, where 1 is the maximum; inactive means score below 0.9.
Outcomes: t = active, f = inactive

Compound: Cn1[nH]nnc1=S
Assigned Label: f
--
Compound: CC(C)(C)c1ccccc1OP(=O)(Oc1ccccc1)Oc1ccccc1
Assigned Label: f
--
Compound: Cc1cccc(N)c1
Assigned Label: f
--
Compound: Cc1cc(C)c(C(=O)P(=O)(c2ccccc2)c2ccccc2)c(C)c1
Assigned Label: f
--
Compound: CCCCc1ccccc1
Assigned Label: f
--
Compound: CC(C)CBr
Assigned Label: f
--
Compound: CCOC(=O)c1ccccc1N
Assigned Label: f
--
Compound: Clc1ccc(Oc2ccccc2)cc1
Assigned Label: f
--
Compound: O=S(=O)(F)C(F)(F)C(F)(F)C(F)(F)C(F)(F)C(F)(F)C(F)(F)C(F)(F)C(F)(F)F
Assigned Label: f
--
Compound: CCNc1nc(Cl)nc(NC(C)(C)C)n1
Assigned Label: f
--
Compound: C=CC(=O)OCC(F)(F)C(F)F
Assigned Label: f
--
Compound: O=P(OCC(Br)CBr)(OCC(Br)CBr)OCC(Br)CBr (stereo not drawn)
Assigned Label: f
--
Compound: CC(Cc1ccc(OCC(=O)O)cc1)NCC(O)c1csc(C(F)(F)F)n1 (stereo not drawn)
Assigned Label: f
--
Compound: N#Cc1ccc(O)cc1
Assigned Label: f
--
Compound: NNC(N)=S
Assigned Label: f
--
Compound: Cc1ccc(C(=O)Cl)cc1
Assigned Label: f
--
Compound: CCCCN(CCCC)SN(C)C(=O)Oc1cccc2c1OC(C)(C)C2
Assigned Label: f
--
Compound: CCCCOCC1CO1 (stereo not drawn)
Assigned Label: f
--
Compound: CCCCC(CC)COC(=O)c1c(Br)c(Br)c(Br)c(Br)c1C(=O)OCC(CC)CCCC (stereo not drawn)
Assigned Label: f
--
Compound: CCCN(CCC)c1c([N+](=O)[O-])cc(C(C)C)cc1[N+](=O)[O-]
Assigned Label: f
--
Compound: CC(=O)CCc1ccc2c(c1)OCO2
Assigned Label: f
--
Compound: NC(=O)C(F)(F)C(F)(F)F
Assigned Label: f
--
Compound: CC1(C)CN=C(NN=C(/C=C/c2ccc(C(F)(F)F)cc2)/C=C/c2ccc(C(F)(F)F)cc2)NC1
Assigned Label: f
--
Compound: OCC(F)(F)OC(F)(F)C(F)(F)OC(F)(F)CO
Assigned Label: f
--
Compound: N#Cc1c(-c2ccc(Cl)cc2)[nH]c(C(F)(F)F)c1Br
Assigned Label: t
--
Compound: Oc1ccccc1Br
Assigned Label: f
--
Compound: Nc1ccc(Cl)cc1
Assigned Label: f
--
Compound: CC1=C(C(=O)Nc2ccccc2)S(=O)(=O)CCO1
Assigned Label: f
